Provide the recorded Vertical activity, 10 min, mean for the entries that follow.
Tested on: amphetamine-induced hyperactivity in rats
experimentNotes: amphetamine-induced hyperactivity model of mania in rats (automated activity monitors)
Format: in vivo, Sprague Dawley rats
measurementContext: group mean n=10; 75 mg/kg IP twice; amphetamine 0.5 mg/kg s.c.; first 10 min

// lookup Vertical activity, 10 min, mean for O=CN[C@H]1CCc2ccccc21 [Compound 4, (S)-N-formyl aminoindan] 17 counts

Try Cl.NCC(=O)NC1CCc2ccccc21 (racemic) [Compound 3, (rac)-N-(2-aminoacetyl)-1-aminoindan HCl] next. 23.1 counts

Try Cl.NCC(=O)N[C@H]1CCc2ccccc21 [Compound 2, (S)-N-indanyl glycinamide HCl] next. 49.3 counts

Try CC(=O)N[C@@H]1CCc2ccccc21 [Compound 1, (R)-N-acetyl aminoindan] next. 14.2 counts

----------
Provide the recorded Locomotor activity, 20 min, mean for the entries that follow.
Tested on: amphetamine-induced hyperactivity in rats
experimentNotes: amphetamine-induced hyperactivity model of mania in rats (automated activity monitors)
Format: in vivo, Sprague Dawley rats
measurementContext: group mean n=10; 75 mg/kg IP twice; amphetamine 0.5 mg/kg s.c.; cumulative to 20 min
# unit: counts | format: bare number

// lookup Locomotor activity, 20 min, mean for Cl.NCC(=O)NC1CCc2ccccc21 (racemic) [Compound 3, (rac)-N-(2-aminoacetyl)-1-aminoindan HCl] 1037

Try Cl.NCC(=O)N[C@H]1CCc2ccccc21 [Compound 2, (S)-N-indanyl glycinamide HCl] next. 1277.9

Try CC(=O)N[C@@H]1CCc2ccccc21 [Compound 1, (R)-N-acetyl aminoindan] next. 945.8

Try O=CN[C@H]1CCc2ccccc21 [Compound 4, (S)-N-formyl aminoindan] next. 1035

----------
System: amphetamine-induced hyperactivity in rats
experimentNotes: amphetamine-induced hyperactivity model of mania in rats (automated activity monitors)
Type: in vivo, Sprague Dawley rats
measurementContext: group mean n=10; 75 mg/kg IP twice; amphetamine 0.5 mg/kg s.c.; second 10 min interval
Provide the recorded Vertical activity, 20-10 min, mean for the entries that follow.
# unit: counts | format: bare number

// lookup Vertical activity, 20-10 min, mean for CC(=O)N[C@@H]1CCc2ccccc21 [Compound 1, (R)-N-acetyl aminoindan] 8.3

Try Cl.NCC(=O)N[C@H]1CCc2ccccc21 [Compound 2, (S)-N-indanyl glycinamide HCl] next. 47

Try Cl.NCC(=O)NC1CCc2ccccc21 (racemic) [Compound 3, (rac)-N-(2-aminoacetyl)-1-aminoindan HCl] next. 8.9

Try O=CN[C@H]1CCc2ccccc21 [Compound 4, (S)-N-formyl aminoindan] next. 7

----------
Provide the recorded Locomotor activity, 20-10 min, mean for the entries that follow.
System: amphetamine-induced hyperactivity in rats
experimentNotes: amphetamine-induced hyperactivity model of mania in rats (automated activity monitors)
Assay type: in vivo, Sprague Dawley rats
measurementContext: group mean n=10; 75 mg/kg IP twice; amphetamine 0.5 mg/kg s.c.; second 10 min interval
# unit: counts | format: bare number

Quick check: Locomotor activity, 20-10 min, mean on amphetamine-induced hyperactivity in rats, item O=CN[C@H]1CCc2ccccc21 [Compound 4, (S)-N-formyl aminoindan] ? 482

Try Cl.NCC(=O)NC1CCc2ccccc21 (racemic) [Compound 3, (rac)-N-(2-aminoacetyl)-1-aminoindan HCl] next. 542.6

Try CC(=O)N[C@@H]1CCc2ccccc21 [Compound 1, (R)-N-acetyl aminoindan] next. 400.5

Try Cl.NCC(=O)N[C@H]1CCc2ccccc21 [Compound 2, (S)-N-indanyl glycinamide HCl] next. 651.9
